# System: HT-29
# Assay name: Chemosensitivity, one hour drug exposure, MTT assay, monolayer
# Assay type: cell-based, human
# Assay setup: HT-29, pHe 6.0, one hour exposure; read-out: IC50 pHe 6.0
Recorded endpoint: IC50 (nM)
Lab book: enter the figure in nM, no units written.

The molecule identified as CO[C@@]12[C@H](COC(N)=O)C3=C(C(=O)C(C)=C(N)C3=O)N1C[C@@H]1N[C@@H]12 [MMC, Mitomycin C, reference compound] registered its IC50 at 500

* * *

# System: H460 cells
# Assay name: Response of H460 cells to EO9 in the presence or absence of FAA (2 mM)
# Type: cell-based, human
# Assay setup: Homo sapiens, NCI-H460, H460 cells, pHe 7.4, with or without FAA 2 mM
Recorded endpoint: pIC50
// pIC50 here means minus log10 of the molar concentration (mol/L)

# pIC50 of `Cn1c(/C=C/CO)c(CO)c2c1C(=O)C=C(N1CC1)C2=O` = 7.22

* * *

# Tested on: H460 cells
# Assay name: Response of H460 cells to EO9 in the presence or absence of FAA (2 mM)
# Format: cell-based, human
# Assay setup: Homo sapiens, NCI-H460, H460 cells, pHe 6.0, with or without FAA 2 mM
Recorded endpoint: pIC50
// field semantics: pIC50 = negative decimal log of concentration (mol/L)

Just so you know, measured pIC50 for `Cn1c(/C=C/CO)c(CO)c2c1C(=O)C=C(N1CC1)C2=O` came out at 8.02

* * *

# Tested on: HT-29
# Assay name: Chemosensitivity, one hour drug exposure, MTT assay, monolayer
# Type: cell-based, human
# Assay setup: Homo sapiens, HT-29, 1 h, read-out: IC50 pHe 6.0
Recorded endpoint: pIC50
By convention, pIC50 is the negative base-10 log of a molar concentration.

pIC50 measured on `Cn1c(/C=C/CO)c(CO)c2c1C(=O)C=C(N1CC1)C2=O` = 7.54

* * *

# Assay name: Solubility of EO9 in formulation vehicle and water
# Assay setup: water
Recorded endpoint: solubility

Quick note, solubility for `Cn1c(/C=C/CO)c(CO)c2c1C(=O)C=C(N1CC1)C2=O` landed at ~200 µg/mL

* * *

# Tested on: H460
# Assay name: Chemosensitivity, one hour drug exposure, MTT assay, monolayer
# Type: cell-based, human
# Assay setup: Homo sapiens, NCI-H460, 1 h, read-out: IC50 pHe 6.0
Recorded endpoint: IC50

The compound listed as `Cn1c(/C=C/CO)c(CO)c2c1C(=O)C=C(N1CC1)C2=O` has a reported IC50 of 9.5 nM

* * *

# System: T24/83
# Assay name: Chemosensitivity, one hour drug exposure, MTT assay, monolayer
# Type: cell-based, human
# Assay setup: T24/83, pHe 6.0, one hour exposure; read-out: IC50 pHe 6.0
# Method: Cell culture and chemosensitivity studies. […] H460 (human NSCLC) cell line was obtained from the American Type Culture Collection (ATCC). […] Calibration curves were conducted over a broad range of pH values in culture medium (pH 3.5 to 11) and the stability of the pH conditions monitored over a one hour incubation period at 37° C.
Recorded endpoint: pIC50
// field semantics: pIC50 = negative decimal log of concentration (mol/L)

Input CO[C@@]12[C@H](COC(N)=O)C3=C(C(=O)C(C)=C(N)C3=O)N1C[C@@H]1N[C@@H]12 [MMC, Mitomycin C, reference compound] . Output pIC50: 5.68

* * *

# Assay name: Stability of EO9 at acidic pH
# Assay setup: buffer, pH 5.5
Recorded endpoint: half-life (min)
Write the answer as a number in min, unit excluded.

Looking up Cn1c(/C=C/CO)c(CO)c2c1C(=O)C=C(N1CC1)C2=O [EO9] , I see its half-life listed as 37

* * *

# System: H460
# Assay name: Chemosensitivity, one hour drug exposure, MTT assay, monolayer
# Format: cell-based, human
# Assay setup: H460, pHe 6.0, one hour exposure; read-out: IC50 pHe 6.0
Recorded endpoint: IC50

CO[C@@]12[C@H](COC(N)=O)C3=C(C(=O)C(C)=C(N)C3=O)N1C[C@@H]1N[C@@H]12 [MMC, Mitomycin C, reference compound] has a reported IC50 of 220 nM
